- MEASUREMENT_DESCRIPTION: Qualitative solubility in solvents (compound data sheets, Supporting Information)
- Format: physicochemical
- CONDITION_DETAILS: solvents in which the compound dissolves
QUANTITY: Solubility

1) O=C1N=C(NS(=O)(=O)c2cccc3ccccc23)S/C1=C\c1cccc(C(=O)O)c1 [compound 10]
DMSO

====

- TESTED_TARGET: clathrin heavy chain NTD (amino acids 1–364) – amphiphysin 1 B/C domain protein–protein interaction (NTD‐PPI) (Homo sapiens)
- Construct: GST‐tagged clathrin heavy chain NTD (amino acids 1–364); made in house
- Sequence (Q00610 1-364): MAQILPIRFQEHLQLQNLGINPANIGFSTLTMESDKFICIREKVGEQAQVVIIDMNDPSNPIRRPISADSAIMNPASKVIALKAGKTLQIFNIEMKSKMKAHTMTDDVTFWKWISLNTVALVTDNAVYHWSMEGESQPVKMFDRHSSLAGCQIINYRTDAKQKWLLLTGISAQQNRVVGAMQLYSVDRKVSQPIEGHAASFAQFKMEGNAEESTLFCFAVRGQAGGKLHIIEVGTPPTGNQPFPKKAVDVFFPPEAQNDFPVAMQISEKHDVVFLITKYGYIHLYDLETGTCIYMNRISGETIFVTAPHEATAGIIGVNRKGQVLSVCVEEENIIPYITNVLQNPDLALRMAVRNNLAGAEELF
- MEASUREMENT_DESCRIPTION: ELISA-based clathrin inhibitor binding assay (NTD-PPI)
- CONDITION_DETAILS: Table 5; ELISA; read-out: NTD‐PPI IC50
QUANTITY: IC50 (µM)

1) O=C1N=C(NS(=O)(=O)c2cccc3ccccc23)S/C1=C\c1cc[nH]c1 [compound 45]
3
2) O=C1N=C(NS(=O)(=O)c2cccc3ccccc23)S/C1=C\c1ccc2c(c1)OCCO2 [compound 54]
1.2
3) O=C1N=C(NS(=O)(=O)c2cccc3ccccc23)S/C1=C\c1ccc(CO)o1 [compound 51]
6.33
4) O=C1N=C(NS(=O)(=O)c2cccc3ccccc23)S/C1=C\c1ccc(Cl)o1 [compound 49]
3.31
5) O=C1N=C(NS(=O)(=O)c2cccc3ccccc23)S/C1=C\c1ccc2c(c1)OCO2 [compound 56]
3.2
6) O=C1N=C(NS(=O)(=O)c2cccc3ccccc23)S/C1=C\c1ccc[nH]1 [compound 47]
5.3
7) O=C1N=C(NS(=O)(=O)c2cccc3ccccc23)S/C1=C\c1cn(S(=O)(=O)c2ccccc2)c2ccccc12 [compound 68]
27
8) O=C1COc2ccc(/C=C3\SC(NS(=O)(=O)c4cccc5ccccc45)=NC3=O)cc2N1 [compound 52]
3.33
